# ASSAY_COMMENT: Trial 000015 Part 2: pharmacokinetics after multiple intranasal administrations
# Assay type: in vivo, human
# CONDITION_LABEL: female, human, plasma, inhaled or intranasal, 200 ug, multiple i.n. doses every 3 hours, 200 μg, Dose No. 1; read-out: Cmax Geom. mean (% CV)
*1 amine or outer side, *2 acyl side, *3 side chain or, on linkers, in order; H or OH if unused. Where a SMILES comes first, the peptide text is derived from it. Bridges are numbered along the chain shown (N, C = ends). [ ]: non-standard residue; d: D form. N(4-F-Bzl)Gly = O=C(O)CNCc1ccc(F)cc1; X1 = O=C(CCC[*:2])[*:1]
ASSAY_READOUT: Cmax (ng/mL)
One number for each entry, in ng/mL.

Task: Complete the entry with Cmax for CC[C@H](C)[C@@H]1NC(=O)[C@H](Cc2ccc(O)cc2)NC(=O)CCCSC[C@@H](C(=O)N(CC(=O)N[C@@H](CC(C)C)C(=O)NCC(N)=O)Cc2ccc(F)cc2)NC(=O)[C@H](CC(N)=O)NC(=O)[C@H](CCC(N)=O)NC1=O [merotocin] (YIQNC[N(4-F-Bzl)Gly]LG-NH2; linker N-5 via X1)
Result: 0.124
